# Test System: Carbonic anhydrase 12 (Homo sapiens)
# Sequence (O43570 whole entry): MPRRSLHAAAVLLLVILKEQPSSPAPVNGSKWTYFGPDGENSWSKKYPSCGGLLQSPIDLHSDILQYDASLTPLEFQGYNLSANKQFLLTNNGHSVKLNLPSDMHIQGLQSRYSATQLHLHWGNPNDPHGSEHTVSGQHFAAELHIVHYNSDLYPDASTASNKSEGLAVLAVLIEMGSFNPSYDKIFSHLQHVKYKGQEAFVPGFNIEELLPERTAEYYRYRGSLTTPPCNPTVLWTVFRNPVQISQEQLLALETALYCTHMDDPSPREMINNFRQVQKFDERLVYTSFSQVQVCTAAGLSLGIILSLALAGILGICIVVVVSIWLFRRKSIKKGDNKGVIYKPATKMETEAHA
Parameter Measured: pIC50
Note: pIC50 values are expressed as the negative base-10 logarithm of concentration in M.

Solved cases below.
- COc1ccc(S(=O)(=O)NC(P(=O)(O)O)P(=O)(O)O)cc1: 6.42
- COc1ccc(-c2ccc(S(=O)(=O)NC(P(=O)(O)O)P(=O)(O)O)cc2)cc1: 7.12
- O=C(NC(P(=O)(O)O)P(=O)(O)O)c1ccc(Br)cc1: 6.56

Considering `O=P(O)(O)C(NS(=O)(=O)c1ccc(Cl)cc1)P(=O)(O)O` , its pIC50 with Carbonic anhydrase 12 (Homo sapiens) was recorded as 6.33

Entry `Cc1ccc(S(=O)(=O)NC(P(=O)(O)O)P(=O)(O)O)cc1` ; assay system Carbonic anhydrase 12 (Homo sapiens); pIC50 recorded at 6.34

Observed pIC50, Carbonic anhydrase 12 (Homo sapiens), `O=P(O)(O)C(NS(=O)(=O)c1ccc(-c2cccs2)cc1)P(=O)(O)O` : 7.06

----------
# pIC50 per entry
# Test System: Carbonic anhydrase 1 (Homo sapiens)
# Sequence (P00915 whole entry): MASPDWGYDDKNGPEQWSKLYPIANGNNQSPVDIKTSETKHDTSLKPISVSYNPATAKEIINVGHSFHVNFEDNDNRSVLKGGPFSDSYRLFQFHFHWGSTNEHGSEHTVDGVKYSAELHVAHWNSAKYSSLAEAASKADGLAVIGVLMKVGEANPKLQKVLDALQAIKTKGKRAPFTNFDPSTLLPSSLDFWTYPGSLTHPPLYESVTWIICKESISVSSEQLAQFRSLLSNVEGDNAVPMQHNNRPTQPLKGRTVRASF
pIC50: −log10 of the molar value.

Recorded results for 4 molecules are shown here.
- O=P(O)(O)C(NS(=O)(=O)c1ccc(-c2cccs2)cc1)P(=O)(O)O: 5.21
- O=P(O)(O)C(NS(=O)(=O)c1ccc(Cl)cc1)P(=O)(O)O: < 5.00
- O=[N+]([O-])c1ccc(S(=O)(=O)NC(P(=O)(O)O)P(=O)(O)O)cc1: < 5.00
- O=P(O)(O)C(NS(=O)(=O)c1ccc(Br)cc1)P(=O)(O)O: < 5.00

We next turn to a different molecule, shown below.
Here `O=P(O)(O)C(O)(Cn1ccnc1)P(=O)(O)O` was tested on Carbonic anhydrase 1 (Homo sapiens), and its pIC50 came to < 5.00
